STUDY SYSTEM: T1, CXCR3 (Homo sapiens, UniProt P49682)
T1 chain: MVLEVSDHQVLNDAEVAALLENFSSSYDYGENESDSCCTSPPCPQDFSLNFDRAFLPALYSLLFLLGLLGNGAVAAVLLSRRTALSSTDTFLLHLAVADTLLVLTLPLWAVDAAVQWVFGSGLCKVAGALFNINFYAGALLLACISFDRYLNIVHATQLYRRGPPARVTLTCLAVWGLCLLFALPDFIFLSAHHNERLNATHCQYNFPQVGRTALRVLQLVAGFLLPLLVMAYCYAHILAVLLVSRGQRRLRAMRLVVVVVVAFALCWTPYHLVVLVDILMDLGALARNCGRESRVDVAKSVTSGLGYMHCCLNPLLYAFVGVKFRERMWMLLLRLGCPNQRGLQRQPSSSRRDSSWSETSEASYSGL
ASSAY PROTOCOL: homologous competition 125I radioligand binding on L1.2 cells
REPORTED METRIC: Kd (nM)
Reply with just the number (in nM).

Dear colleague, I am looking for the recorded Kd of the following binder: CXCL11 (protein) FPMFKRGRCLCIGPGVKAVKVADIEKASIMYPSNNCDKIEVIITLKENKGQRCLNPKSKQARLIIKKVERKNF 16
